Reported values of Kd for individual entries
TARGET_DESC: HLA-B*35:01
ASSAY_PROCEDURE: IEDB peptide-MHC binding, purified MHC/competitive/radioactivity; filed as Kd, often an IC50 or EC50 that approximates it; bounds were set here for any values at or beyond the usual limits of such assays
CONDITION_NOTES: source organism: SARS coronavirus Tor2
// note: answer is a bare numeric in µM

POLYMER_SEQUENCE	TARGET_DESC	MEASURED_PARAMETER	RECORDED_NUMBER
APNAKEEIL	HLA-B*35:01	Kd	19.2

Now for another entry.
Look up Kd: `SPLFLIVAAL`
3.33

----------
TARGET_DESC: HLA-B*15:01
ASSAY_PROCEDURE: IEDB peptide-MHC binding, purified MHC/competitive/fluorescence; filed as Kd, often an IC50 or EC50 that approximates it; bounds were set here for any values at or beyond the usual limits of such assays
CONDITION_NOTES: source organism: Escherichia coli str. K-12 substr. MG1655
MEASURED_PARAMETER: pKd
The value called pKd is obtained by taking minus log10 of the concentration in mol/L.

Look up pKd: `ELACAVPFY`
6.65

----------
TARGET_DESC: HLA-B*48:01
ASSAY_PROCEDURE: IEDB peptide-MHC binding, purified MHC/direct/fluorescence; filed as Kd, often an IC50 or EC50 that approximates it; bounds were set here for any values at or beyond the usual limits of such assays
CONDITION_NOTES: source organism: Camelpox virus CMS
pKd: −log10 of the molar value.
MEASURED_PARAMETER: pKd

Find the measured pKd: item `REVFYFGKF` , target or system HLA-B*48:01.
≤ 4.70

----------
TARGET_DESC: HLA-A*02:12
ASSAY_PROCEDURE: IEDB peptide-MHC binding, purified MHC/direct/fluorescence; filed as Kd, often an IC50 or EC50 that approximates it; bounds were set here for any values at or beyond the usual limits of such assays
CONDITION_NOTES: source organism: Vibrio cholerae O395
MEASURED_PARAMETER: Kd

Look up Kd: `VVSEIDLQW`
≥ 20 µM

----------
TARGET_DESC: HLA-B*58:01
ASSAY_PROCEDURE: IEDB peptide-MHC binding, purified MHC/direct/fluorescence; filed as Kd, often an IC50 or EC50 that approximates it; bounds were set here for any values at or beyond the usual limits of such assays
CONDITION_NOTES: source organism: Escherichia coli O157:H7
MEASURED_PARAMETER: Kd

Would you please look over these solved cases?
POLYMER_SEQUENCE	RESULT
AQRPAKYSY	≥ 20 µM
SMYQLMITI	≥ 20 µM

Now for another entry.
Find the measured Kd: item `RFDEAIINY` , target or system HLA-B*58:01.
≥ 20 µM

----------
TARGET_DESC: HLA-A*01:01
ASSAY_PROCEDURE: IEDB peptide-MHC binding, purified MHC/direct/fluorescence; filed as Kd, often an IC50 or EC50 that approximates it; bounds were set here for any values at or beyond the usual limits of such assays
CONDITION_NOTES: source organism: Yellow fever virus
pKd: −log10 of the molar value.
MEASURED_PARAMETER: pKd

POLYMER_SEQUENCE	MEASURED_PARAMETER	RESULT
GSRAYRNAL	pKd	≤ 4.70

Now for another entry.
Look up pKd: `SCRVKLSAL`
≤ 4.70

----------
TARGET_DESC: HLA-A*24:02
ASSAY_PROCEDURE: IEDB peptide-MHC binding, purified MHC/competitive/fluorescence; bounds were set here for any values at or beyond the usual limits of such assays
CONDITION_NOTES: source organism: Vaccinia virus
MEASURED_PARAMETER: IC50 (µM)
// note: answer is a bare numeric in µM

POLYMER_SEQUENCE	IC50, µM
RMNSNQVCI	0.0818

Now for another entry.
Find the measured IC50: item `RLEEEINNQ` , target or system HLA-A*24:02.
32.6

----------
TARGET_DESC: HLA-B*40:02
ASSAY_PROCEDURE: IEDB peptide-MHC binding, purified MHC/competitive/radioactivity; filed as Kd, often an IC50 or EC50 that approximates it; bounds were set here for any values at or beyond the usual limits of such assays
CONDITION_NOTES: source organism: Mammarenavirus juninense
MEASURED_PARAMETER: Kd (µM)
// note: answer is a bare numeric in µM

Look up Kd: `SDQKFVDVI`
4.43

// same read-out, input: `EELIKLRFWF`
10.4

----------
TARGET_DESC: HLA-A*26:01
ASSAY_PROCEDURE: IEDB peptide-MHC binding, purified MHC/competitive/fluorescence; filed as Kd, often an IC50 or EC50 that approximates it; bounds were set here for any values at or beyond the usual limits of such assays
CONDITION_NOTES: source organism: Brucella melitensis bv. 1 str. 16M
MEASURED_PARAMETER: Kd

Look up Kd: `AVGVVCTGL`
≥ 20 µM

----------
TARGET_DESC: HLA-A*33:01
ASSAY_PROCEDURE: IEDB peptide-MHC binding, purified MHC/competitive/radioactivity; filed as Kd, often an IC50 or EC50 that approximates it; bounds were set here for any values at or beyond the usual limits of such assays
CONDITION_NOTES: source organism: Mammarenavirus juninense
MEASURED_PARAMETER: pKd
The value called pKd is obtained by taking minus log10 of the concentration in mol/L.

Find the measured pKd: item `YTKFWYVNH` , target or system HLA-A*33:01.
7.55

----------
TARGET_DESC: HLA-B*40:02
ASSAY_PROCEDURE: IEDB peptide-MHC binding, purified MHC/competitive/radioactivity; filed as Kd, often an IC50 or EC50 that approximates it; bounds were set here for any values at or beyond the usual limits of such assays
CONDITION_NOTES: source organism: Lassa virus Josiah
MEASURED_PARAMETER: Kd
Value and unit, in that order.

Look up Kd: `AEAQMSIQLI`
53.9 nM

----------
TARGET_DESC: HLA-A*23:01
ASSAY_PROCEDURE: IEDB peptide-MHC binding, purified MHC/competitive/radioactivity; filed as Kd, often an IC50 or EC50 that approximates it; bounds were set here for any values at or beyond the usual limits of such assays
CONDITION_NOTES: source organism: Dengue virus 3 Martinique/1243/1999
MEASURED_PARAMETER: pKd
The value called pKd is obtained by taking minus log10 of the concentration in mol/L.

Look up pKd: `SWALCEALTL`
6.37

----------
TARGET_DESC: HLA-A*26:01
ASSAY_PROCEDURE: IEDB peptide-MHC binding, purified MHC/competitive/fluorescence; filed as Kd, often an IC50 or EC50 that approximates it; bounds were set here for any values at or beyond the usual limits of such assays
CONDITION_NOTES: source organism: Pleistophora sp. LS
MEASURED_PARAMETER: Kd

Look up Kd: `VELQIGWTV`
≥ 20 µM

----------
TARGET_DESC: HLA-B*07:02
ASSAY_PROCEDURE: IEDB peptide-MHC binding, purified MHC/direct/fluorescence; filed as Kd, often an IC50 or EC50 that approximates it; bounds were set here for any values at or beyond the usual limits of such assays
CONDITION_NOTES: source organism: Pseudomonas aeruginosa UCBPP-PA14
pKd: −log10 of the molar value.
MEASURED_PARAMETER: pKd

Look up pKd: `GLGGDASAY`
≤ 4.70

----------
TARGET_DESC: HLA-C*15:02
ASSAY_PROCEDURE: IEDB peptide-MHC binding, purified MHC/direct/fluorescence; filed as Kd, often an IC50 or EC50 that approximates it; bounds were set here for any values at or beyond the usual limits of such assays
CONDITION_NOTES: source organism: West Nile virus
MEASURED_PARAMETER: Kd (µM)
// note: answer is a bare numeric in µM

Look up Kd: `RLARAIIEL`
2.42

----------
Reported values of Kd for individual entries
TARGET_DESC: HLA-A*31:01
ASSAY_PROCEDURE: IEDB peptide-MHC binding, purified MHC/competitive/radioactivity; filed as Kd, often an IC50 or EC50 that approximates it; bounds were set here for any values at or beyond the usual limits of such assays
CONDITION_NOTES: source organism: Dengue virus 3 Sri Lanka/1266/2000
// note: answer is a bare numeric in µM

POLYMER_SEQUENCE	Kd, µM
IFTLTVAWR	0.163

Now for another entry.
Look up Kd: `IVSSVNMVSR`
0.0827

----------
TARGET_DESC: HLA-A*02:01
ASSAY_PROCEDURE: IEDB peptide-MHC binding, purified MHC/direct/fluorescence; filed as Kd, often an IC50 or EC50 that approximates it; bounds were set here for any values at or beyond the usual limits of such assays
CONDITION_NOTES: source organism: Coxiella burnetii
MEASURED_PARAMETER: Kd

Look up Kd: `SYGNANVSF`
≥ 20 µM

Origin of measurements: the Immune Epitope Database (IEDB)
